System: P12-Ichikawa
procedureDetails: cell viability relative to DMSO control; higher = less cytotoxic
measurementContext: RPMI 5 mM glucose + 10% FBS; 48 h; 15.4 µM
Entries and their cell viability values follow.
Output spec: scalar in %, unitless text.

Illustrative cases are given below, each with its answer.
- compound: "CC1(C)O[C@@H]2C[C@H]3[C@@H]4CCC5=CC(=O)C=C[C@]5(C)[C@@]4(F)[C@@H](O)C[C@]3(C)[C@]2(C(=O)CO)O1"
  obsValue: 17.9
- compound: "COc1c(C)cnc(Cn2cnc3c(Cl)nc(N)nc32)c1C"
  obsValue: 40.9
- compound: "CC1(C)Cc2c(-c3ccccc3)c(-c3ccc(Cl)cc3)c(CC(=O)O)n2C1"
  obsValue: 99.6
- compound: "COC[C@H]1OC(=O)C2=COC3=C2[C@@]1(C)\\C4=C(C5CCC(=O)[C@@]5(C)C[C@H]4OC(C)=O)/C3=O (some centres not stated)"
  obsValue: 97
- compound: "C[C@@H](NC1=CC=CC=C1C(O)=O)C/2=C/C(=C\\N3C(=O)/C=C(\\N=C23)N4CCOCC4)C"
  obsValue: 47.9
- compound: "CC(=O)N(C)c1cccc(-c2ccnc3c(C(=O)c4cccs4)cnn23)c1"
  obsValue: 88.1
- compound: "COc1ccc(-c2cc3nccn3c(Nc3ncccc3C(N)=O)n2)cc1OC"
  obsValue: 107
- compound: "CN(CC#C)C/C1=C/C2=CC=CC=C2OC3=CC=CC=C13"
  obsValue: 83.1

According to the records, this compound CC(C)NCC(O)COc1ccc(COCCOC(C)C)cc1 (configuration not stated) displays cell viability of 116

According to the records, this compound Cc1nc(NC(=O)N2CCC[C@H]2C(N)=O)sc1-c1ccnc(C(C)(C)C(F)(F)F)c1 displays cell viability of 48.3
